System: P. falciparum 3D7 growth, pLDH absorbance
methodNotes: blood-stage malaria parasite growth potency – strain 3D7, dose response (AID 2305)
For each record, check the reported IC50: if it is below 800 nM write 1 (yes), else write 0 (no).

[[record]]
structurestring = "CCN(CC)CCCNc1ncc2c(-c3ccc(NC(=O)Nc4cc(C(F)(F)F)ccc4F)c(F)c3)nn(C)c2n1"
classification = "1 (yes)"

[[record]]
structurestring = "N#Cc1ccc(N2CCN(Cc3ccc(-c4ccc(-c5nc6ccc(C(F)(F)F)cc6[nH]5)cc4)cc3)CC2)nc1"
classification = "0 (no)"

[[record]]
structurestring = "CCN1CCC(NCc2ccc(-c3ccc(Cl)cc3)cc2)CC1"
classification = "0 (no)"

[[record]]
structurestring = "Cc1ccccc1CNC(=O)Nc1cccc(-c2csc(N=C(N)N)n2)c1"
classification = "1 (yes)"

[[record]]
structurestring = "c1ccc(CNc2cc(-c3ccccn3)nc(-c3ccccn3)n2)cc1"
classification = "1 (yes)"

[[record]]
structurestring = "COc1cc(OCCCN(C)Cc2ccc(OC)c(OC)c2)ccc1NC(=O)c1cccc2c(=O)c3cccc(F)c3[nH]c12"
classification = "0 (no)"

[[record]]
structurestring = "Clc1ccc2c(N3CCCNCC3)ccnc2c1"
classification = "1 (yes)"


* * *

System: P. falciparum 3D7 growth, pLDH absorbance
methodNotes: blood-stage malaria parasite growth potency – strain 3D7, dose response (AID 2305)
Label key: TRUE means IC50 under 700 nM; FALSE means IC50 of 700 nM or more.

[[record]]
compound = "Cc1cccc2[nH]c(-c3ccc(-c4ccc(NC(=O)Nc5ccc(Cl)cc5)cc4)cc3)nc12"
classification = "TRUE"

[[record]]
compound = "Cc1ccc(Oc2ccc(CNc3nc(Nc4cccc(F)c4)nc(Nc4cccc(F)c4)n3)cc2)cc1"
classification = "FALSE"

[[record]]
compound = "CC[C@H](NC(=O)c1ccc(NC(=O)OC(C)(C)C)cc1)C(=O)N[C@@H](CO)C(=O)NCCCCc1ccccc1"
classification = "FALSE"

[[record]]
compound = "Cc1[nH]nc2cc(Nc3ccnc(Nc4cccc(CN5CCOCC5)c4)n3)ccc12"
classification = "FALSE"

[[record]]
compound = "Brc1cc2c(cc1C=NNc1nc(Nc3ccccc3)nc(Nc3ccccc3)n1)OCO2"
classification = "FALSE"

[[record]]
compound = "CC(=O)N1N=C(c2cccs2)Sc2c1nc(-c1ccc(Cl)cc1)n2C(C)=O"
classification = "FALSE"

[[record]]
compound = "COc1c(C(=O)NC2CCN(Cc3ccccc3)C2)cnc2ccccc12 (centres undefined)"
classification = "FALSE"

[[record]]
compound = "O=C(C=Cc1ccc(Cl)c(Cl)c1)NCCCCCN1CCC(c2[nH]nc3ccccc23)CC1"
classification = "TRUE"

[[record]]
compound = "CC(C)CCN1CCC(Oc2ccc(NC(=O)c3cccs3)cc2Cl)CC1"
classification = "TRUE"

[[record]]
compound = "Cc1cccc2[nH]c(-c3ccc(-c4cccc(CNCCCNS(C)(=O)=O)c4)cc3)nc12"
classification = "FALSE"

[[record]]
compound = "O=C(Nc1ccc(OC2CCN(Cc3ccc(F)cc3)CC2)c(Cl)c1)c1ccccc1"
classification = "FALSE"

[[record]]
compound = "CCN(CC)CCNC(=O)/C(=C/C=C/c1cc2cc(Cl)c(Cl)cc2[nH]1)OC"
classification = "FALSE"

[[record]]
compound = "COc1ccc2nccc([C@@H](O)CN3CCC(NC(=O)C(c4cc5ccccc5o4)N4CCN(Cc5ccccc5)CC4)CC3)c2c1 (some centres undefined)"
classification = "TRUE"

[[record]]
compound = "CCCCOc1ccc(/C=C/c2ccc(-c3c(C)[nH]c(C)c(Cl)c3=O)s2)cc1"
classification = "TRUE"

[[record]]
compound = "CO/C(=C\\C=C\\c1cc2cc(Cl)ccc2[nH]1)C(=O)NCCCN1CCN(c2cc(Cl)ccc2OC)CC1"
classification = "FALSE"

[[record]]
compound = "CCN(C)C(=O)n1ncc2c3c(N)nc(N)nc3ccc21"
classification = "TRUE"

[[record]]
compound = "CCCC(C)NC(=O)[C@H](CC1CCCCC1)NC(=O)c1ccc(O)c(-c2cccc(C(F)(F)F)c2)c1 (some centres undefined)"
classification = "TRUE"

[[record]]
compound = "Fc1cccc(C=NNc2ccnc3cc(Cl)ccc23)c1"
classification = "TRUE"


* * *

Tested on: P. falciparum 3D7 growth, pLDH absorbance
methodNotes: blood-stage malaria parasite growth potency – strain 3D7, dose response (AID 2305)
quantity: IC50 (nM)

[[record]]
molecule = "Cc1ccc2c(=O)cc(CCc3cccc(F)c3F)n(CC(=O)N(Cc3ccc(-c4ccc(C(F)(F)F)cc4)cc3)C3CCN(C)CC3)c2n1"
testtarget = "P. falciparum 3D7 growth, pLDH absorbance"
unitdescriptor = "nM"
recordedmeasurement = 1260

[[record]]
molecule = "O=C([C@H]1C[C@@H]1c1ccccc1)N(Cc1ccc(-c2ccc(CNCCc3ccccc3)cc2)cc1)C1CCNCC1"
testtarget = "P. falciparum 3D7 growth, pLDH absorbance"
unitdescriptor = "nM"
recordedmeasurement = 1110

[[record]]
molecule = "Cc1cc2nc(-c3ccc(C(=O)NC4CCN(Cc5ccccc5)CC4)cc3)[nH]c2cc1C"
testtarget = "P. falciparum 3D7 growth, pLDH absorbance"
unitdescriptor = "nM"
recordedmeasurement = 740

[[record]]
molecule = "CCC1CN2CCc3c([nH]c4ccccc34)C2CC1CC1=NCCc2c1[nH]c1ccc(OC)cc21 (stereo not drawn)"
testtarget = "P. falciparum 3D7 growth, pLDH absorbance"
unitdescriptor = "nM"
recordedmeasurement = 640

[[record]]
molecule = "COc1cc2nc(NCCc3ccccc3)nc(NCc3ccc(C#N)cc3)c2cc1OC"
testtarget = "P. falciparum 3D7 growth, pLDH absorbance"
unitdescriptor = "nM"
recordedmeasurement = 150

[[record]]
molecule = "CCN(CC)CCCN(C(=O)Nc1ccc(C#N)cc1)c1nc(-c2ccc(F)cc2)cs1"
testtarget = "P. falciparum 3D7 growth, pLDH absorbance"
unitdescriptor = "nM"
recordedmeasurement = 650

[[record]]
molecule = "O=C(NC1CCC(CN2CCC(c3c[nH]c4ccccc34)CC2)CC1)c1cc(-c2ccc(F)cc2F)ccc1O (stereo not drawn)"
testtarget = "P. falciparum 3D7 growth, pLDH absorbance"
unitdescriptor = "nM"
recordedmeasurement = 360

[[record]]
molecule = "COc1ccccc1NC(=O)Nc1cccc(-c2cccc(-c3nc4c(C)cccc4[nH]3)c2)c1"
testtarget = "P. falciparum 3D7 growth, pLDH absorbance"
unitdescriptor = "nM"
recordedmeasurement = 100


* * *

log10(IC50) values by entry
Tested on: P. falciparum 3D7 growth, pLDH absorbance
methodNotes: blood-stage malaria parasite growth potency – strain 3D7, dose response (AID 2305)
quantity: log10(IC50) (log10 of the value in nM)

[[record]]
structurestring = "O=C(NCCCN1CCN(c2cccc(Cl)c2)CC1)c1ccc(-c2nc3cc(Cl)c(Cl)cc3[nH]2)cc1"
testtarget = "P. falciparum 3D7 growth, pLDH absorbance"
quantity = "log10(IC50)"
recordedmeasurement = 2.85

[[record]]
structurestring = "CC(C)[C@H](NC(=O)c1ccc(O)c(-c2ccc(Cl)c(Cl)c2)c1)C(=O)NCCN1CCOCC1"
testtarget = "P. falciparum 3D7 growth, pLDH absorbance"
quantity = "log10(IC50)"
recordedmeasurement = 2.96

[[record]]
structurestring = "O=C(NCCCCCN1CCC(c2ccc(O)cc2)CC1)c1ccc(-c2ccccc2)cc1"
testtarget = "P. falciparum 3D7 growth, pLDH absorbance"
quantity = "log10(IC50)"
recordedmeasurement = 2.97

[[record]]
structurestring = "CCN1CCC(N(Cc2ccc(-c3ccc(C(F)(F)F)cc3)cc2)C(=O)CCCCn2c(CCc3cccc(F)c3F)nc(=O)c3ccccc32)CC1"
testtarget = "P. falciparum 3D7 growth, pLDH absorbance"
quantity = "log10(IC50)"
recordedmeasurement = 3.00

[[record]]
structurestring = "O=C(/C=C/c1ccc(Cl)c(Cl)c1)NCCCCCN1CCC(CCNC(=O)/C=C/c2ccc(Cl)c(Cl)c2)CC1"
testtarget = "P. falciparum 3D7 growth, pLDH absorbance"
quantity = "log10(IC50)"
recordedmeasurement = 2.75

[[record]]
structurestring = "CCOC(=O)c1ccc(NC(=O)Nc2cccc(-c3cccc(-c4nc5ccc(F)cc5[nH]4)c3)c2)cc1"
testtarget = "P. falciparum 3D7 growth, pLDH absorbance"
quantity = "log10(IC50)"
recordedmeasurement = 1.95

[[record]]
structurestring = "Cc1c(-c2cccc(NC(=O)C(C)(C)Oc3ccc(Cl)cc3)c2)nc2ncccn12"
testtarget = "P. falciparum 3D7 growth, pLDH absorbance"
quantity = "log10(IC50)"
recordedmeasurement = 2.23

[[record]]
structurestring = "CCN(CC)CCN(Cc1ccc(-c2ccc(C(F)(F)F)cc2)cc1)C(=O)Cn1c(CCc2cc(F)c(F)cc2F)nc(=O)c2ccccc21"
testtarget = "P. falciparum 3D7 growth, pLDH absorbance"
quantity = "log10(IC50)"
recordedmeasurement = 2.86

